# CC50 at 72 h annotations
method.notes: General cytotoxicity on HepG2 cells
Assay type: cell-based
experimental.conditions: human; general cytotoxicity, HepG2 cells, 72 hours, average of several tests
# output: bare number, implied unit µM

> print(dat)
                            molecule.smiles  data.value
1  C=CC(=O)Nc1cc(Nc2cc(C(=O)c3ccc(C)cc3)ccn2)c(OC)cc1N(C)CCN(C)C        22.8
2  C=CC(=O)Nc1cc(Nc2nccc(C(=O)c3ccc(OC)cc3OC(C)C)n2)c(OC)cc1N(C)CCN(C)C        18.7
3  C=CC(=O)Nc1cc(Nc2nccc(C(=O)c3cccc([N+](=O)[O-])c3)n2)c(OC)cc1N(C)CCN(C)C        10.3

Now, please, on to the next molecule.
Quick one: CC50 at 72 h of "C=CC(=O)Nc1cc(Nc2nccc(C(=O)c3ccc(N4CCN(C)CC4)cc3OC)n2)c(OC)cc1N(C)CCN(C)C" ? 29.3

====

# SI IC50(A549)/IC50(DM) annotations
Test system: H1975 (lung adenocarcinoma, DM, L828R/T790M)
method.notes: Antiproliferative activity on H1975 cells (Alamar Blue)
Assay type: cell-based
experimental.conditions: selectivity index, A549 vs H1975 cells
Output: the number by itself.

> print(dat)
                                   compound                               target.desc       quantity.measured  data.value
1  C=CC(=O)Nc1cc(Nc2nccc(C(=O)c3cccc([N+](=O)[O-])c3)n2)c(OC)cc1N(C)CCN(C)C [EGFR_3365_34]  H1975 (lung adenocarcinoma, DM, L828R/T790M)  SI IC50(A549)/IC50(DM)       98.26
2  C=CC(=O)Nc1cc(Nc2nccc(C(=O)c3ccc(OCCC)cc3)n2)c(OC)cc1N(C)CCN(C)C [EGFR_3365_30]  H1975 (lung adenocarcinoma, DM, L828R/T790M)  SI IC50(A549)/IC50(DM)      337.72
3  C=CC(=O)Nc1cc(Nc2nccc(C(=O)c3ccccc3Br)n2)c(OC)cc1N(C)CCN(C)C [EGFR_3365_12]  H1975 (lung adenocarcinoma, DM, L828R/T790M)  SI IC50(A549)/IC50(DM)      716.20
4  C=CC(=O)Nc1cc(Nc2nccc(C(=O)c3ccc(Oc4ccccc4)cc3)n2)c(OC)cc1N(C)CCN(C)C [EGFR_3365_17]  H1975 (lung adenocarcinoma, DM, L828R/T790M)  SI IC50(A549)/IC50(DM)        6.08
5  C=CC(=O)Nc1cc(Nc2nccc(C(=O)c3ccc(N4CC[C@H](O)C4)cc3)n2)c(OC)cc1N(C)CCN(C)C.O=CO [EGFR_3365_112]  H1975 (lung adenocarcinoma, DM, L828R/T790M)  SI IC50(A549)/IC50(DM)        2443

Now, please, on to the next compound.
Quick one: SI IC50(A549)/IC50(DM) of C=CC(=O)Nc1cc(Nc2cc(C(=O)c3ccc(N4CC(OC)C4)cc3)ccn2)c(OC)cc1N(C)CCN(C)C (racemic) [EGFR_3365_53] ? 183

====

target.desc: DM EGFR (DoubleMutantEGFR, L828R/T790M) (Homo sapiens, UniProt P00533, L858R/T790M)
Construct: purchased SignalChem
method.notes: Inhibition of DM EGFR kinase activity (ADP-Glo)
Format: biochemical
experimental.conditions: selectivity index, kinase EGFR WT vs EGFR DM
quantity.measured: SI, IC50(WT)/IC50(DM)
Output: the number by itself.

The examples below pair each entry with its known result.
> print(dat)
                                   molecule  data.value
1  C=CC(=O)Nc1cc(Nc2nccc(C(=O)c3ccc(N4CCCCC4)cc3)n2)c(OC)cc1N(C)CCN(C)C [EGFR_3365_90]       43.40
2  C=CC(=O)Nc1cc(Nc2nccc(C(=O)c3ccc(N4CCCCC4)cc3OC)n2)c(OC)cc1N(C)CCN(C)C [EGFR_3365_122]        7.35
3  C=CC(=O)Nc1cc(Nc2cc(C(=O)c3ccc(OCC)cc3)ccn2)c(OC)cc1N(C)CCN(C)C [EGFR_3365_52]       10.58
4  C=CC(=O)Nc1cc(Nc2nccc(C(=O)c3ccc(N4CC[C@@H](OC)C4)cc3)n2)c(OC)cc1N(C)CCN(C)C [EGFR_3365_115]       63.44
5  C=CC(=O)Nc1cc(Nc2nccc(C(=O)c3ccc(N4CCC[C@H](OC)C4)cc3)n2)c(OC)cc1N(C)CCN(C)C [EGFR_3365_110]       42.20

Quick one: SI, IC50(WT)/IC50(DM) of C=CC(=O)Nc1cc(Nc2cc(C(=O)c3ccc(OC)cc3OC)ccn2)c(OC)cc1N(C)CCN(C)C [EGFR_3365_87] ? 24.50

Quick one: SI, IC50(WT)/IC50(DM) of C=CC(=O)Nc1cc(Nc2nccc(C(=O)c3ccc(N(C)C)cc3)n2)c(OC)cc1N(C)CCN(C)C [EGFR_3365_73] ? 13.89

====

method.notes: Chemical stability in simulated intestinal fluid (SIF)
Assay type: physicochemical
experimental.conditions: SIF without enzymes, pH 6.5; 10 μm; 2 hours at 37° C.; substance amount remaining
quantity.measured: Stability in SIF, % (%)
# output: bare number, implied unit %

The examples below pair each entry with its known result.
> print(dat)
                            molecule.smiles  data.value
1  C=CC(=O)Nc1cc(Nc2cc(C(=O)c3ccc(-c4cnn(C)c4)cc3)ccn2)c(OC)cc1N(C)CCN(C)C        98.4
2  C=CC(=O)Nc1cc(Nc2nccc(C(=O)c3ccc(OCC(C)C)cc3)n2)c(OC)cc1N(C)CCN(C)C        91.1

Quick one: Stability in SIF, % of "C=CC(=O)Nc1cc(Nc2nccc(C(=O)c3cccc([N+](=O)[O-])c3)n2)c(OC)cc1N(C)CCN(C)C" ? 100.0

Quick one: Stability in SIF, % of "C=CC(=O)Nc1cc(Nc2nccc(C(=O)c3ccc(OCCCC)cc3)n2)c(OC)cc1N(C)CCN(C)C" ? 96.5

====

System: HepG2 cells
method.notes: General cytotoxicity on HepG2 cells
Format: cell-based
experimental.conditions: therapeutic index, CC50 HepG2 / IC50 H1975
Label class 1 when TI, CC50/IC50 < 700; otherwise class 0.

Below are worked cases with known answers.
> print(dat)
                            molecule.smiles  target.desc  discrete.label
1  C=CC(=O)Nc1cc(Nc2cc(C(=O)c3ccc(OCCOC)cc3)ccn2)c(OC)cc1N(C)CCN(C)C  HepG2 cells         class 1
2  C=CC(=O)Nc1cc(Nc2cc(C(=O)c3ccc(-c4cnn(C)c4)cc3)ccn2)c(OC)cc1N(C)CCN(C)C  HepG2 cells         class 1
3  C=CC(=O)Nc1cc(Nc2cc(C(=O)c3ccccc3)ccn2)c(OC)cc1N(C)CCN(C)C  HepG2 cells         class 1
4  C=CC(=O)Nc1cc(Nc2cc(C(=O)c3ccc(OCCC)cc3)ccn2)c(OC)cc1N(C)CCN(C)C  HepG2 cells         class 1

hey, is TI, CC50/IC50 for "C=CC(=O)Nc1cc(Nc2nccc(C(=O)c3ccc(N(C)C)cc3)n2)c(OC)cc1N(C)CCN(C)C" lower than 700 or not? class 0

hey, is TI, CC50/IC50 for "C=CC(=O)Nc1cc(Nc2nccc(C(=O)c3ccc(OC4CC4)cc3)n2)c(OC)cc1N(C)CCN(C)C" lower than 700 or not? class 0

hey, is TI, CC50/IC50 for "C=CC(=O)Nc1cc(Nc2nccc(C(=O)c3ccc(OC)cc3)n2)c(OC)cc1N(C)CCN(C)C" lower than 700 or not? class 0

hey, is TI, CC50/IC50 for "C=CC(=O)Nc1cc(Nc2nccc(C(=O)c3ccc(OC)cc3OCCC)n2)c(OC)cc1N(C)CCN(C)C" lower than 700 or not? class 1

hey, is TI, CC50/IC50 for "C=CC(=O)Nc1cc(Nc2nccc(C(=O)c3ccc(OC(C)C)cc3OC)n2)c(OC)cc1N(C)CCN(C)C" lower than 700 or not? class 0

hey, is TI, CC50/IC50 for "C=CC(=O)Nc1cc(Nc2cc(C(=O)c3ccc(OC)cc3OC)ccn2)c(OC)cc1N(C)CCN(C)C" lower than 700 or not? class 1

hey, is TI, CC50/IC50 for "C=CC(=O)Nc1cc(Nc2nccc(C(=O)c3ccc(OC)cc3OC(C)C)n2)c(OC)cc1N(C)CCN(C)C" lower than 700 or not? class 1
